Origin of measurements: PubChem BioAssay (NCI)

Test system: OVCAR-3 ovarian
Assay: NCI tumour cell line growth inhibition, 48 h
ENDPOINT: TGI (µM)

- CCCC(=O)Nc1cc(/C=C/C(=O)N2CC(CCl)c3c2cc(OCc2ccccc2)c2[nH]cc(C)c32)n(C)c1 (stereo not given): 0.512
- Nc1ccccc1Nc1ccccc1C(=O)[O-].Nc1ccccc1Nc1ccccc1C(=O)[O-].[Zn+2]: 61
- C=C1CCCC2[C@](C)(CC3=C(Cl)C(=O)C=C(OC)C3=O)C(C)CC[C@]12C (stereo not given in full): 11.9
- O=C(/C=C/c1ccco1)c1cc(F)c(Cl)cc1Cl: 60.4

---

Tested on: HT29 colon
Assay: NCI tumour cell line growth inhibition, 48 h; in the data active = GI50 below about 0.43 µM; inactive = the rest
Possible outcomes: active, inactive

* C[n+]1c(/C=C/c2c[nH]c3ccccc23)ccc2ccccc21 | inactive
* Cc1cc(Nc2ccc(OCc3ccccc3)cc2)nc2cc(O)ccc12 | inactive
* O=C(/C=C/c1ccco1)c1cc(F)c(Cl)cc1Cl | inactive
* N#Cc1c(NC(=O)NCc2ccccc2)sc2c1CCCC2 | active
* COc1cc2nccc(Oc3ccc(NC(=O)NC4CC4)c(Cl)c3)c2cc1C(N)=O | inactive
* c1ccc([CH2][Sn]([CH2]c2ccccc2)([O]c2cccc3cccnc23)[O]c2cccc3cccnc23)cc1 | active
* NS(=O)(=O)OCC1OC(n2cnc3cncnc32)C(O)C1O (stereo not given) | active
* CO/C=C/C(=O)c1cc2cnc3c(=N)cc(NC(=O)C(C)C)c([nH]1)c23 | active
* Cc1ccc(Cl)cc1Nc1nc(C(F)(F)F)ccc1C(=O)N/N=C/c1cccnc1 | inactive
* N.N.NCCCCCN.O=C([O-])CCl.O=C([O-])CCl.O=C([O-])CCl.O=C([O-])CCl.[Pt+4].[Pt+4] | inactive
